Assay: reduction of polyQ htt aggregates in cells – imaging, exon1htt(103Q)mCFP cells, high-content imaging, primary screen (AID 483);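 also: compound exposure lasted 3 days before fixation; percent of the per-plate median nuclei count of sample wells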
Conditions: exon1htt(103Q)mCFP cell line, aggregate imaging, at 2 µM; measured here: cell count, toxicity
assay metric: nuclei count (%)
Numbers only, in %.

compound: O=C(Nc1ccc(F)cc1F)NC1CC(=O)N(Cc2ccccc2)C1 (stereo unspecified)
nuclei count / %: 66.3
--
compound: CCOC(=O)c1c(NC(=O)CSc2nnc(-c3cccnc3)o2)sc(C)c1C
nuclei count / %: 73.6
--
compound: O=C(Nc1ccc(-c2nc3ncccc3o2)cc1)c1ccc(Br)o1
nuclei count / %: 89.7
--
compound: CN(C)C(CNC(=O)Nc1cccc(Cl)c1)c1cccnc1 (stereo unspecified)
nuclei count / %: 67.5
--
compound: CC(=O)Nc1ccc(NC(=O)Cn2cnc3c(cnn3C(C)(C)C)c2=O)cc1
nuclei count / %: 104

Lookup result for "Cc1cc(C)n2nc(SCC(=O)N(C)c3ccccc3)nc2n1" ; measured nuclei count: 115

----------
Assay: inhibitors of TNFa-induced NFkB p65 translocation, primary screen, imaging, HUVEC, MLSMR starter and 10KST1 sets (AID 438);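 also: compound added about 3h40 before a 20 min TNFalpha stimulation; signal is the nuclear over cytoplasmic p65 intensity ratio per well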
Settings: HUVEC TNFa-induced p65 nuclear translocation; at 2 µM, stronger effect = higher value, 0% TNFa-plus-vehicle, 100% no-TNFa wells
Exercise: state measured inhibition for each of the compounds provided.
Answers are plain numbers, in %.

Worked cases, answers included:
compound: Cn1c(SCc2cccc3ccccc23)nnc1-c1ccco1
inhibition (%): 1.6
--
compound: COC(=O)Cc1csc(N)n1
inhibition (%): 10
--
compound: O=C(Nc1ccccc1)c1cccc(N2CCCC2=O)c1
inhibition (%): -6.9
--
compound: COc1cccc(-c2nc(-c3ccc(NC(=O)Cc4ccccc4OC)cc3)no2)c1
inhibition (%): -1.8
--
compound: CCN(CC)S(=O)(=O)c1cccc(-c2nnc(SCCOc3ccccc3C)o2)c1
inhibition (%): 0.4
--
compound: O=C(CS(=O)(=O)c1cn(Cc2ccc(F)cc2)c2ccccc12)N1CCCCC1
inhibition (%): -0.2
--
compound: CNC(=O)CSc1nnc(-c2cccc(S(=O)(=O)N3CCOCC3)c2)n1-c1ccc(F)cc1
inhibition (%): 7.2
--
compound: COc1ccccc1N1CCN(C/C(O)=C(\C#N)c2nc(-c3ccccc3)cs2)CC1
inhibition (%): -3.4

For each of the items listed, what is its inhibition?
1. CCOc1ccc(NC(=O)CN2CCN(CC(=O)c3ccc(OCC)cc3)CC2)cc1
2. CC(=O)c1ccc2c3c(cccc13)C(=O)N(c1c(C)nn(C)c1C)C2=O
3. CN(CC(=O)Nc1sccc1C#N)C1CCCCC1
4. Cc1ccc2c(C(=O)CN3CCSCC3)c(C)[nH]c2c1

[2.1, -4.4, -7.3, 4.8]

For each of the items listed, what is its inhibition?
1. O=C(OCCN=C1NS(=O)(=O)c2ccccc21)C1CC(=O)N(c2ccc(Cl)cc2)C1 (stereo not given)
2. Cn1nc(C(C)(C)C)cc1C(=O)NCc1ccc(N2CCCC2=O)cc1
3. CCCCN(Cc1cc2cc(OC)ccc2[nH]c1=O)C(=O)COc1ccccc1
4. COc1ccc(OCc2cccc(C(=O)O)c2)cc1
5. CC(=O)N1CCc2c(sc(NC(=O)c3ccc(S(=O)(=O)N(C)C)cc3)c2C#N)C1
6. Cc1ccc(NC(=O)CC2Nc3ccccc3NC2=O)cc1Cl (stereo not given)
7. COc1ccc(C(=O)CSc2nnc(-c3ccc(C)cc3)o2)cc1

2.7
-10.6
4.3
-1.6
-0.8
1.4
11.2

For each of the items listed, what is its inhibition?
1. COc1ccc(-c2cc(C(=O)N3CCN(Cc4ccccc4)CC3)no2)cc1OC
2. Cc1onc(-c2ccccc2Cl)c1C(=O)Nc1cccc(-c2cn3cccnc3n2)c1
3. c1ccc2nc(-c3nc4ccccc4[nH]3)ccc2c1
4. Cc1c(Cl)cccc1NC(=O)CCN1CCCCCC1
5. CCC(C(=O)NC(C)CCc1ccco1)n1nc(C)n2c(cc3occc32)c1=O (stereo not given)
6. N#Cc1c(/N=C/c2ccco2)sc2c1CCC2
7. CC1CCCN(S(=O)(=O)c2ccc(C(=O)Nc3nnc(-c4ccccc4Cl)o3)cc2)C1 (stereo not given)
8. O=c1cc(-c2ccccc2)[nH]c2nc3ccccc3n12

-23
-10.3
9.8
14.6
6
11.9
-2.8
-1.2

For each of the items listed, what is its inhibition?
1. CCC(=O)Nc1cc(Cl)ccc1N1CCN(C(=O)CC)CC1
2. COc1ccc(CNc2oc(-c3cccc4ccccc34)nc2C#N)cc1
3. CN(C)/C=C(\C#N)c1nc2ccccc2[nH]1
4. CCCCCCn1c(CN2CCN(Cc3ccccc3)CC2)nc2c1c(=O)n(C)c(=O)n2C
5. O=C(CCCN1C(=O)c2ccccc2C1=O)Oc1ccc(F)cc1
6. CS(=O)(=O)N(CC(=O)Nc1cccc(F)c1)Cc1ccccc1
7. CCOC(=O)N1CCN(Cc2nc3c(c(=O)n(C)c(=O)n3C)n2Cc2ccc(F)cc2)CC1

2.1
-3.4
11.9
-15.1
-11.6
-0.2
0.3

Lookup result for "O=C(NCCC1=CCCCC1)C1CCN(S(=O)(=O)c2cnc[nH]2)CC1" ; measured inhibition: 4.5
